- System: LXRb homodimer (NR concentration 270 nM)
- METHOD SUMMARY: PBM binding z-score (relative to random genomic background probes); higher = stronger binding; sequences stand for … in GC…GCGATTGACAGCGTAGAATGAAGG
Each entry gets Not fulfilled if its PBM binding z-score stays under 0.3, and Fulfilled if its PBM binding z-score is 0.3 or above.

Answered examples (10):
RESIDUE STRING: ATACCAAGGTGATCGTGAGGTCGTTGAAACTAAC
LABEL VALUE: Not fulfilled
--
RESIDUE STRING: TCGAGTAGGTTTCCAATGGGGCATTCAGCTTTCT
LABEL VALUE: Not fulfilled
--
RESIDUE STRING: GCGACTGGGGCATCAGCAGGTTCCCATAACTTAA
LABEL VALUE: Not fulfilled
--
RESIDUE STRING: GCAGACAGGTGAAAGGCAGGTAACTCAGGGTGGC
LABEL VALUE: Not fulfilled
--
RESIDUE STRING: ATATGTAGGTTAGCTGGGGTCATTCTGACTAGGC
LABEL VALUE: Fulfilled
--
RESIDUE STRING: TGTCAAAGTTCAAAGATAACGTAAGTATCCACAC
LABEL VALUE: Fulfilled
--
RESIDUE STRING: ATCTCTAGGTAAAGATAGATCAGTGAATGCAAAT
LABEL VALUE: Fulfilled
--
RESIDUE STRING: CGAACTAGGTCAGCCAGGACAGTGAATACATTGA
LABEL VALUE: Not fulfilled
--
RESIDUE STRING: GCTAGCAGGCCATTTGAGTCACTCAATGACGGGC
LABEL VALUE: Not fulfilled
--
RESIDUE STRING: TAGCCTAGGTCATTCAGGGGCCAGTATAGAAAGC
LABEL VALUE: Fulfilled

Does PBM binding z-score meet or surpass 0.3 for CGAACTAGGTCAGTGACAGGACAGTGAATAGTAA ? Not fulfilled

Record GCTTACGGGTCATAGGTTATAGCATGAATAGAAT ; criterion: PBM binding z-score no lower than 0.3. Met? Not fulfilled

Decide: is the reported value of PBM binding z-score for TAGCCTTGGTCATTGGGCCAGTATAGTACGCATC equal to or greater than 0.3? Not fulfilled

Does PBM binding z-score meet or surpass 0.3 for CAAACTAGGTCACGAAATGTCAAAGTCGAATGAC ? Fulfilled

Please check the record TCTGATAGGTCAGTTGGTCAGCTAACGAGCTGCC and state if its PBM binding z-score is at or above 0.3. Fulfilled

Check the entry TCTTGTAGATCAAGCAGCTTAAGAAAGCCTGAGT : does PBM binding z-score equal or exceed 0.3? Not fulfilled

Kindly determine if PBM binding z-score recorded for GGCACGAGGGCATTCGAGTTGATAGCATGGCGAT is above or exactly 0.3. Not fulfilled

Check if PBM binding z-score >= 0.3 (inclusive). Item: ATCTCTAGGTGAGACTCAGTTCAGTGAAGAACGC Not fulfilled

###

- System: PPARg:RXRa 30nM:10nM, anti-RXR (NR concentration 30 nM, RXRa partner concentration 10 nM)
- METHOD SUMMARY: PBM binding z-score (relative to random genomic background probes); higher = stronger binding; sequences stand for … in GC…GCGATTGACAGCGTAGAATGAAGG
MEASURED PARAMETER: PBM binding z-score
Could you keep your reply to the number by itself?

RESIDUE STRING: CAAACTAGGTCAAGGTCGAAGTCGGTTTGTGCCA
EXPERIMENTAL SYSTEM: PPARg:RXRa 30nM:10nM, anti-RXR (NR concentration 30 nM, RXRa partner concentration 10 nM)
PBM binding z-score: 5.52

RESIDUE STRING: GCTCGGAGGACAAGGCCAGAGCTTTGTCCGTAGA
EXPERIMENTAL SYSTEM: PPARg:RXRa 30nM:10nM, anti-RXR (NR concentration 30 nM, RXRa partner concentration 10 nM)
PBM binding z-score: -1.47

RESIDUE STRING: TCTGCTAGGTCGACGATGGTCAGCTAATCTGCTA
EXPERIMENTAL SYSTEM: PPARg:RXRa 30nM:10nM, anti-RXR (NR concentration 30 nM, RXRa partner concentration 10 nM)
PBM binding z-score: 1.2

RESIDUE STRING: TCATATATGTAAATGCTAGGTGAAAGTCCGATCT
EXPERIMENTAL SYSTEM: PPARg:RXRa 30nM:10nM, anti-RXR (NR concentration 30 nM, RXRa partner concentration 10 nM)
PBM binding z-score: 3.23

RESIDUE STRING: TAGCCTAGGTCATTGGGCCACTATAGTACGCATC
EXPERIMENTAL SYSTEM: PPARg:RXRa 30nM:10nM, anti-RXR (NR concentration 30 nM, RXRa partner concentration 10 nM)
PBM binding z-score: 1.41

Switching to the query record.
Endpoint output: PBM binding z-score of TTACCAAAGTGAGCTGAGGTCGTTGATCCAACTC . Value? 0.0696
